Where do these numbers come from? They come from PubChem BioAssay AID449728.

- assay_name: bacterial viability reduction in E. coli – absorbance, OD600, counter-screen for AddAB inhibitor project, primary screen (AID 449728);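 note: uninfected addAB+ strain grown without phage in ampicillin broth; 0% = DMSO wells and 100% = ciprofloxacin 0.95 µg/ml wells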
- measurement_context: E. coli V3065 growth, 18 h, at 11.9 µM, stronger effect = higher value
Among all 330,000 compounds or so, about 900 (0.27%) were called active. Many of the other results were omitted from the sample, so actives are more common in it than they were.
endpoint_name: inhibition (%)
Give a bare numeral; the unit % is implied.

{"compound": "CC(C)[C@@H]1COC(c2cccc(C3=N[C@H](C(C)C)CO3)c2)=N1", "endpoint_unit": "%", "inhibition": -0.25}

Kindly review the next compound as well.
[Q] Form field: reported inhibition of CCCCN(CC)CCNC(=O)c1[nH]c(C)c(C(C)=O)c1C
[A] -0.92

---

- assay_name: bacterial viability reduction in E. coli – absorbance, OD600, counter-screen for AddAB inhibitor project, primary screen (AID 449728)
- measurement_context: E. coli V3065 growth, 18 h, at 11.9 µM
Screen size: about 330,000 compounds; about 900 (0.27%) were called active.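 The calls were made as follows: active = inhibition above the campaign's mean inhibition across all tested compounds plus 3 SD (cut at about 9.9% in these data); inactive = the rest.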 This excerpt belongs to a sample that is enriched for actives.
Reply using exactly one outcome from Y = active, N = inactive

These solved cases illustrate the format of a correct answer.
{"compound": "CC(=O)NN1C(=O)c2ccccc2NC1c1ccccc1 (centres undefined)", "label": "N"}
{"compound": "COc1ccc2c(C(=O)c3ccc(C)cc3)n(CCC(N)=O)[n+]([O-])c2c1", "label": "N"}
{"compound": "CCOc1ccc(/C=C/C(=O)OCC(=O)c2ccccc2OC)cc1OC", "label": "N"}
{"compound": "CC(C)(C)N(Cc1ccccc1)C(=O)c1ccncc1", "label": "N"}
{"compound": "O=C(CCCN1C(=O)CCC1=O)Nc1ccc(Cl)c(C(F)(F)F)c1", "label": "N"}

[Q] Hi, sorry to bother you, what did the test record for NC(=O)NCCCC(=O)O ?
[A] N

[Q] Could you kindly confirm the outcome this assay logged for CCCn1nc(Oc2nc(NC(C)C)nc(N(C)C)n2)ccc1=O ?
[A] N

[Q] Can you look up the reported call for CN(C)[C@@H]1C(=O)C(C(N)=O)=C(O)[C@@]2(O)C(=O)C3=C(O)c4c(O)ccc(Cl)c4[C@@H](O)[C@H]3C[C@@H]12 for me?
[A] Y

[Q] What was the test verdict on COC(=O)C1=C(C)N(C)C(=O)NC1c1ccc([N+](=O)[O-])o1 (centres undefined) ?
[A] N

[Q] Per the records of this test, what outcome belongs to CC(=O)c1c(Nc2ccccc2)sc(C(=O)c2ccccc2)c1C ?
[A] N

---

- assay_name: bacterial viability reduction in E. coli – absorbance, OD600, counter-screen for AddAB inhibitor project, primary screen (AID 449728)
- measurement_context: E. coli V3065 growth, 18 h, at 11.9 µM, stronger effect = higher value
The whole screen tested about 330,000 compounds, of which about 900 (0.27%) were called active. The entries come from a sample that favours actives as a whole.
Item-by-item account of inhibition
Your answer should be a plain number; it is taken to be in %.

Example results:
{"molecule": "O=C(NNC(=O)C1CCCC1)c1ccc(F)cc1", "endpoint_unit": "%", "obs_value": -1.97}
{"molecule": "CCCCCC1CC(COc2ccccc2)OC1=O (centres undefined)", "endpoint_unit": "%", "obs_value": -0.64}
{"molecule": "CCCc1nc(N)nc2c1C(=O)CC(C)(C)C2", "endpoint_unit": "%", "obs_value": 0}
{"molecule": "Cc1nnc(SCC2=C(C(=O)O)N3C(=O)C(NC(=O)Cn4nc(C)c(Cl)c4C)C3SC2)s1 (centres undefined)", "endpoint_unit": "%", "obs_value": 1.18}
{"molecule": "CC(C)(C)OC(=O)C1=C(CO)CS[C@@H]2[C@H](NC(=O)Cc3ccccc3)C(=O)N12", "endpoint_unit": "%", "obs_value": 1.43}
{"molecule": "CC(=O)Oc1ccccc1C(=O)Nc1ncc([N+](=O)[O-])s1", "endpoint_unit": "%", "obs_value": 11.2}
{"molecule": "C=CC1=C(C(=O)O)N2C(=O)[C@@H](NC(=O)/C(=N\\OCC(=O)O)c3csc(N)n3)[C@H]2SC1", "endpoint_unit": "%", "obs_value": 97.5}
{"molecule": "O=C1c2ccccc2C(=O)N1CCC(O)C[N+](=O)[O-] (centres undefined)", "endpoint_unit": "%", "obs_value": 3.02}
{"molecule": "CCn1c(=O)c([N+](=O)[O-])c(NCc2ccc3c(c2)OCO3)c2ccccc21", "endpoint_unit": "%", "obs_value": 0.41}
{"molecule": "CCOc1cccc(/C=N/NC(=S)NCCN2CCOCC2)c1O", "endpoint_unit": "%", "obs_value": 0.34}

Here's the next entry for you.
[Q] Form field: reported inhibition of COc1ccc(NC(=O)CSc2nc(SC)ns2)c(OC)c1
[A] -1.11

---

- assay_name: bacterial viability reduction in E. coli – absorbance, OD600, counter-screen for AddAB inhibitor project, primary screen (AID 449728);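 note: uninfected addAB+ strain grown without phage in ampicillin broth; 0% = DMSO wells and 100% = ciprofloxacin 0.95 µg/ml wells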
- measurement_context: E. coli V3065 growth, 18 h, at 11.9 µM, stronger effect = higher value
Screen size: about 330,000 compounds; about 900 (0.27%) were called active. Many of the other results were omitted from the sample, so actives are more common in it than they were.
Entries annotated with measured inhibition
Please respond with the number in % and leave the unit unwritten.

{"molecule": "CCn1cc(C(=O)NCCO)c(=O)c2cc(F)c(N3CCN(C)CC3)cc21", "endpoint_unit": "%", "inhibition": 97.8}
{"molecule": "CCCCNC(=O)c1cn(CC)c2cc(N3CCN(C(=O)c4ccco4)CC3)c(F)cc2c1=O", "endpoint_unit": "%", "inhibition": 5.88}
{"molecule": "CCC1(C)Cc2c(sc3[nH]c(=S)n(Cc4ccccc4)c(=O)c23)CO1 (stereo not given)", "endpoint_unit": "%", "inhibition": -1.73}

[Q] Any idea what inhibition was measured for CCCCC(=O)Nc1nnc(S(=O)(=O)N(C)Cc2ccco2)s1 ?
[A] 1.69

[Q] Could you tell me which inhibition is on file for CN1CCN(C(=O)c2cnn(-c3ccccc3)c2NC(=O)c2ccc([N+](=O)[O-])cc2)CC1 ?
[A] -0.94

[Q] Look up inhibition for this molecule: CCc1ccccc1NC(=O)CN(c1ccc(OC)cc1OC)S(=O)(=O)c1ccccc1[N+](=O)[O-]
[A] -0.37

---

Catalogue of inhibition readings, one per entry.
- assay_name: bacterial viability reduction in E. coli – absorbance, OD600, counter-screen for AddAB inhibitor project, primary screen (AID 449728);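 note: uninfected addAB+ strain grown without phage in ampicillin broth; 0% = DMSO wells and 100% = ciprofloxacin 0.95 µg/ml wells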
- measurement_context: E. coli V3065 growth, 18 h, at 11.9 µM, stronger effect = higher value
The whole screen tested about 330,000 compounds, of which about 900 (0.27%) were called active. Shown is part of a subset that was picked to be rich in actives.
# output: bare number, implied unit %

Examples from the recorded data:
{"compound": "O=C1CN(C(=O)COC(=O)C2CC(=O)N(Cc3ccco3)C2)c2ccccc2N1 (centres undefined)", "endpoint_name": "inhibition", "obs_value": -0.37}
{"compound": "CC1CCCC(NC(=O)c2cc(S(=O)(=O)N3CCCCC3)ccc2Cl)C1C (centres undefined)", "endpoint_name": "inhibition", "obs_value": -1.24}
{"compound": "O=C(OCC1O[C@@H](OC(=O)c2cc(O)c(O)c(O)c2)[C@@H](OC(=O)c2cc(O)c(O)c(O)c2)[C@@H](OC(=O)c2cc(O)c(O)c(O)c2)[C@@H]1OC(=O)c1cc(O)c(O)c(O)c1)c1cc(O)c(O)c(O)c1 (some centres undefined)", "endpoint_name": "inhibition", "obs_value": 23.6}
{"compound": "CC(C)(C)NC(=O)COC(=O)c1cc(Br)ccc1Cl", "endpoint_name": "inhibition", "obs_value": -0.09}

[Q] Suppose we examine the compound O=S(=O)(c1ccc(Br)cc1)n1ccc2ccccc21 ; what inhibition value has been reported?
[A] 0.82

[Q] Find the recorded inhibition belonging to Cc1ccc(C)c(OCCC(=O)OCC(=O)NC(=O)NCc2ccccc2)c1 and report it.
[A] 0.73

[Q] What measured inhibition goes with Oc1ccc2ccccc2c1N=Nc1nccs1 ?
[A] 13.9

[Q] GET /values?readout=inhibition&item= O=C1c2ccccc2NC(c2ccc(-c3cccc(Cl)c3)o2)N1O (centres undefined)
[A] 19.2

[Q] # lookup: inhibition of CC(=O)Nc1ccc(S(=O)(=O)N(CCc2ccccc2)CC(=O)N/N=C/c2ccc(C(=O)O)cc2)cc1
[A] 2.71

---

- assay_name: bacterial viability reduction in E. coli – absorbance, OD600, counter-screen for AddAB inhibitor project, primary screen (AID 449728);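 note: uninfected addAB+ strain grown without phage in ampicillin broth; 0% = DMSO wells and 100% = ciprofloxacin 0.95 µg/ml wells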
- measurement_context: E. coli V3065 growth, 18 h, at 11.9 µM
Among all 330,000 compounds or so, about 900 (0.27%) were called active.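 The calls were made as follows: active = inhibition above the campaign's mean inhibition across all tested compounds plus 3 SD (cut at about 9.9% in these data); inactive = the rest.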 The sample holds actives, similar compounds and a random draw of the others, so the mix is not that of the screen.
Assign a class; possible classes are class 1 (active), class 0 (inactive)

{"compound": "COc1ccc(C(=O)/C=C/c2cccnc2)c(OC)c1", "label": "class 0"}
{"compound": "Cc1cc2c(cc1C)[n+](C)cn2CC(O)COCC1CC=CCC1 (stereo not drawn)", "label": "class 0"}
{"compound": "CCn1c(=O)cc(SCC(=O)NCc2ccc3c(c2)OCO3)c2ccccc21", "label": "class 0"}

[Q] So what was the verdict on CCOCCCn1c(NN)nc2ccccc2c1=O in this test?
[A] class 0

[Q] Can you look up the reported call for Cc1ccc(/C=C/C(=O)Nc2ccc([N+](=O)[O-])c(NC(=O)/C=C/c3ccc(C)o3)c2)o1 for me?
[A] class 0

[Q] What is the recorded call for this compound in the test? CN(Cc1ccco1)S(=O)(=O)c1nnc(NC(=O)c2ccccc2)s1
[A] class 0

[Q] Fill in: this test's call for COc1ccc(/C=C/C(=O)c2cc(Br)ccc(=O)c2O)cc1 is ___
[A] class 1

[Q] Dear colleague, could you share the recorded outcome for Cn1ccc(=Nc2ccc(NC(=O)c3ccc(N=c4ccn(C)c5ccc([N+](=O)[O-])cc45)cc3)cc2)cc1 when you have a moment?
[A] class 1

[Q] Can you look up the reported call for CCOc1ccccc1NC(=S)N1CCN(c2cccc(C)c2C)CC1 for me?
[A] class 0

[Q] Please indicate how the test categorized O=C(O)CSc1nccc2ccccc12 .
[A] class 0
